- Test system: P. vulgatus RND KO;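 further: active when median AUC fell below 0.1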
- EXPERIMENT: growth AUC normalised to DMSO control (median) (fraction of control); higher = less growth inhibition, active = hit call of the paper
- MEASUREMENT PARAMETERS: 20 µM
Counter-ions that a name gives are not always drawn.
Select the matching outcome among active, inactive

(Q) Test call for this compound, please: COc1ccccc1N1CCN(CCCCNC(=O)c2ccc3ccccc3c2)CC1
(A) inactive

(Q) Also COc1ccccc1N1CCN(CC(O)COc2cccc3ccccc23)CC1 (configuration not stated) [Naftopidil dihydrochloride] ?
(A) inactive

(Q) Also C[C@H](Cc1cc2c(c(C(N)=O)c1)N(CCCO)CC2)NCCOc1ccccc1OCC(F)(F)F ?
(A) inactive

(Q) Also C/C(=C(\CCOC(=O)c1ccccc1)SS/C(CCOC(=O)c1ccccc1)=C(/C)N(C=O)Cc1cnc(C)nc1N)N(C=O)Cc1cnc(C)nc1N ?
(A) inactive

(Q) Also COc1cc(C(=O)OCCCN2CCCN(CCCOC(=O)c3cc(OC)c(OC)c(OC)c3)CC2)cc(OC)c1OC [Dilazep dihydrochloride] ?
(A) inactive

(Q) Also NC(=O)N1c2ccccc2C=Cc2ccccc21 [Carbamazepine] ?
(A) inactive

(Q) Also CO[C@H]1/C=C/O[C@@]2(C)Oc3c(C)c(O)c4c(O)c(c5c(nc6cc(C)ccn65)c4c3C2=O)NC(=O)/C(C)=C\C=C\[C@H](C)[C@H](O)[C@@H](C)[C@@H](O)[C@@H](C)[C@H](OC(C)=O)[C@@H]1C ?
(A) active

(Q) Also CCN(CCO)CCCC(C)Nc1ccnc2cc(Cl)ccc12 (configuration not stated) [Hydroxychloroquine sulfate] ?
(A) inactive

(Q) Also Cc1ccsc1C(=CCCN1CCC[C@@H](C(=O)O)C1)c1sccc1C [Tiagabine hydrochloride] ?
(A) inactive

(Q) Also CCCCOC(=O)c1ccc(N)cc1 ?
(A) inactive

(Q) Also O=C1c2c(O)ccc(O)c2C(=O)c2c(NCCNCCO)ccc(NCCNCCO)c21 [Mitoxantrone dihydrochloride] ?
(A) inactive

(Q) Also NC(N)=Nc1nc(CSCCN/C=N/S(=O)(=O)c2ccc(Br)cc2)cs1 ?
(A) inactive

(Q) Also CCOC(=O)[N-]c1c[n+](N2CCOCC2)no1 ?
(A) inactive

(Q) Also N[C@@H]1CONC1=O ?
(A) inactive

(Q) Also CC(c1cc2ccccc2s1)N(O)C(N)=O (configuration not stated) ?
(A) inactive

(Q) Also CC1CC(OC(=O)C(O)c2ccccc2)CC(C)(C)C1 (configuration not stated) [Cyclandelate] ?
(A) inactive

(Q) Also OC(CCCN1CCCCC1)(c1ccccc1)c1ccccc1 [Diphenidol hydrochloride] ?
(A) inactive

----------
- Test system: Shigella flexneri
- EXPERIMENT: growth AUC normalised to DMSO control (fraction of control); higher = less growth inhibition, active = hit call of the paper
- MEASUREMENT PARAMETERS: 20 µM
Structures can show the parent of a compound that is named as a salt.
Rule: growth AUC normalised to DMSO control under 1 gives Criterion not met, otherwise Criterion met.

(Q) Answer whether growth AUC normalised to DMSO control of CC(C)NCC(O)COc1ccc(COCCOC(C)C)cc1 (stereo unspecified) [Bisoprolol hemifumarate] is greater than or equal to 1.
(A) Criterion met

(Q) Also Cc1ccc(-c2ncc(Cl)cc2-c2ccc(S(C)(=O)=O)cc2)cn1 ?
(A) Criterion met

(Q) Also CCc1cccc2c3c([nH]c12)C(CC)(CC(=O)O)OCC3 (stereo unspecified) ?
(A) Criterion met

(Q) Also N[C@H]1CONC1=O [(S,-) Cycloserine] ?
(A) Criterion met

(Q) Also COc1ccc(CC(C)NCC(O)c2ccc(O)c(NC=O)c2)cc1 (stereo unspecified) [Formoterol fumarate] ?
(A) Criterion met

(Q) Also COc1ccc(C(=O)NCc2ccc(OCCN(C)C)cc2)cc1OC [Itopride] ?
(A) Criterion met

(Q) Also CC(C)(C)C(=O)OCOC(=O)[C@@H]1N2C(=O)[C@@H](/N=C/N3CCCCCC3)[C@H]2SC1(C)C [Pivmecillinam hydrochloride] ?
(A) Criterion not met

(Q) Also C[C@@H](O)[C@H]1C(=O)N2C(C(=O)O)=C(S[C@@H]3CN[C@H](C(=O)N(C)C)C3)[C@H](C)[C@H]12 ?
(A) Criterion not met

(Q) Also CC(C(=O)O)c1ccc(C(=O)c2cccs2)cc1 (stereo unspecified) ?
(A) Criterion met

(Q) Also Cc1ccc(Cl)c(Nc2ccccc2C(=O)O)c1Cl [Meclofenamic acid sodium salt monohydrate] ?
(A) Criterion not met

(Q) Also CNS(=O)(=O)Cc1ccc2[nH]cc(CCN(C)C)c2c1 [Sumatriptan succinate] ?
(A) Criterion not met

(Q) Also C[C@]12C=CC(=O)C=C1CC[C@@H]1[C@@H]2[C@@H](O)C[C@@]2(C)[C@H]1CC[C@]2(O)C(=O)CO ?
(A) Criterion not met

(Q) Also CC(=C(CCO)SSCC1CCCO1)N(C=O)Cc1cnc(C)nc1N (stereo in doubt) [Fursultiamine hydrochloride] ?
(A) Criterion not met

(Q) Also C[C@@H](c1ncncc1F)[C@](O)(Cn1cncn1)c1ccc(F)cc1F ?
(A) Criterion not met

(Q) Also CN1C(=O)OC(C)(C)C1=O ?
(A) Criterion not met

(Q) Also C[C@H](CS)C(=O)N1CCC[C@H]1C(=O)O ?
(A) Criterion met

(Q) Also Cc1cccc(C)c1NC(=O)C(C)N (stereo unspecified) [Tocainide hydrochloride] ?
(A) Criterion not met

(Q) Also Cc1cn([C@H]2C=C[C@@H](CO)O2)c(=O)[nH]c1=O ?
(A) Criterion met
